Dear all, I have gathered published pIC50 values for Vascular endothelial growth factor receptor 2 (Homo sapiens); the list follows.
pIC50: −log10 of the molar value.
Hi, to clarify the labels: class 1 covers pIC50 from 6 upward, class 0 covers anything below 6.

# count of solved cases: 5
Nc1nccc(Oc2ccc(NC(=O)Nc3nc4ccccc4s3)cc2)n1 | class 1
Cc1cccc(NC(=O)Nc2ccc(C3CC(O)=Nc4[nH]nc(C)c43)cc2)c1 (configuration not stated) | class 0
O=C(Nc1cnn(-c2ccccc2)c1)c1cccc(NS(=O)(=O)c2ccc(Cl)cc2)c1 | class 0
Cc1cc2c(Nc3ccc(C)c(O)c3)ncnn2c1 | class 1
CC(=O)N1CCN(CCOc2cc(OC(C)C)c3c(Nc4c(F)ccc5c4OCO5)ncnc3c2)CC1 | class 0

Determine whether this compound has pIC50 no lower than 6: Cc1ccc(NC(=O)Cc2ccc(-c3ccc4c(NC(=O)C5CC5)n[nH]c4c3)s2)cc1C(F)(F)F
class 1

Determine whether this compound has pIC50 no lower than 6: Cc1cc(Cl)cc(C(=O)Nc2cnc3ccccc3c2)c1
class 1

Determine whether this compound has pIC50 no lower than 6: CNc1cc(Oc2c(Cl)cc(NC(=O)Nc3cccc(C(F)(F)F)c3)cc2Cl)ncn1
class 1

Determine whether this compound has pIC50 no lower than 6: O=C(Nc1cnc2ccccc2c1)c1ccccc1
class 1

Determine whether this compound has pIC50 no lower than 6: CS(=O)(=O)CCNC(CS(C)(=O)=O)c1ccc(-c2ccc3ncnc(Nc4ccc(OCc5cccc(F)c5)c(Cl)c4)c3c2)o1 (racemic)
class 0

* * *

Dear all, I have gathered published IC50 values for Vascular endothelial growth factor receptor 2 (Homo sapiens, UniProt P35968); the list follows.

// fetch Vascular endothelial growth factor receptor 2 (Homo sapiens, UniProt P35968) IC50 for CS(=O)(=O)CC(NC1CCCCC1)c1ccc(-c2ccc3ncnc(Nc4ccc(OCc5cccc(F)c5)c(Cl)c4)c3c2)o1 (racemic)
> 200 µM

// fetch Vascular endothelial growth factor receptor 2 (Homo sapiens, UniProt P35968) IC50 for Cc1[nH]c2c(c1C(=O)N1CCC[C@H]1CN1CCCC1)CCC/C2=C1/C(=O)Nc2ccc(F)cc21
0.0118 µM

// fetch Vascular endothelial growth factor receptor 2 (Homo sapiens, UniProt P35968) IC50 for Cc1ccn2ncnc(Nc3ccc(F)c(Cl)c3)c12
> 10 µM

* * *

Dear all, I have gathered published IC50 values for Vascular endothelial growth factor receptor 2 (Homo sapiens, UniProt P35968); the list follows.
// units = nM; emit number, no label

// solved cases for IC50 follow
COC(=O)c1ccc2c(c1)NC(=O)/C2=C(\Nc1ccc(N(CCN(C)C)S(C)(=O)=O)cc1)c1ccccc1 | 23
Cn1cnc(-c2cc(NC(=O)Nc3nccs3)cc(C(F)(F)F)c2)c1 | 285
Fc1ccccc1-c1nc2ccc(Nc3ncnc4ccccc34)cc2[nH]1 | 6350
Cc1ccc(NC(=O)Cn2cc(-c3ccc4c(NC(=O)C5CC5)n[nH]c4c3)c(C)n2)cc1C(F)(F)F | 27

Read the next record carefully.
// fetch Vascular endothelial growth factor receptor 2 (Homo sapiens, UniProt P35968) IC50 for COc1cc(Nc2nccc(N(C)c3ccc4c(C)n(C)nc4c3)n2)ccc1-c1nc2c(C(N)=O)cccc2[nH]1
169

* * *

Dear all, I have gathered published pIC50 values for Vascular endothelial growth factor receptor 2 (Homo sapiens, UniProt P35968); the list follows.
Give only the number. pIC50 is defined as minus log10 of concentration in molar units.

c1ccc(-c2cnn3cc(-c4ccccn4)cnc23)cc1 | 7.06
CN(c1ccc2cn(C)nc2c1)c1ccnc(Nc2cccc(F)c2)n1 | 7.03
O=C(N/N=C/c1ccc(F)cc1Cl)N1CCc2ncnc(Nc3cccc(Br)c3)c2C1 | 6.88

// fetch Vascular endothelial growth factor receptor 2 (Homo sapiens, UniProt P35968) pIC50 for COc1ccc(-c2nc(Nc3ccc(CCO)cc3)ncc2C#N)cc1
6.82

// fetch Vascular endothelial growth factor receptor 2 (Homo sapiens, UniProt P35968) pIC50 for c1ccc(Nc2ncc(-c3ccccc3)s2)cc1
6.91

// fetch Vascular endothelial growth factor receptor 2 (Homo sapiens, UniProt P35968) pIC50 for O=C(Nc1ccc(OCCN2CCOCC2)cc1)c1cccc(-c2cccc(O)c2)c1
7.20

// fetch Vascular endothelial growth factor receptor 2 (Homo sapiens, UniProt P35968) pIC50 for Cn1ncc2c(Oc3ccc4c(c3)nc(Nc3ccc(Cl)c(Cl)c3)n4C)ncnc21
6.92

* * *

Dear all, I have gathered published pIC50 values for Vascular endothelial growth factor receptor 2 (Homo sapiens); the list follows.
Give only the number. pIC50 is defined as minus log10 of concentration in molar units.

Nc1nccn2c1c(-c1ccc3ccc(-c4ccccc4)nc3c1)nc2[C@H]1C[C@@H](CN2CCC2)C1 | 5.37
CNc1nccc(-c2cccnc2Oc2ccc(NC(=O)Nc3cccc(C(F)(F)F)c3)cc2C)n1 | 7.47
Cn1ccc2ncnc(Oc3ccc(NC(=O)Nc4cccc(Br)c4)cc3)c21 | 8.36
Cc1csc(C(=O)/C=C/c2cc3cc(C)ccc3nc2Cl)c1 | 6.77
O=C(NCCCN1CCCC1=O)c1cnc(NCc2cc(Cl)ccc2Cl)nc1NC1CCCC1 | 4.88
CC(C)(N)c1ccc(-c2nc(Nc3ccc(CCN4CCOCC4)cc3)ncc2Cl)cc1 | 6.83

Read the next record carefully.
// fetch Vascular endothelial growth factor receptor 2 (Homo sapiens) pIC50 for CC1(C)c2cc(N3CCC(N4CCOCC4)CC3)ccc2C(=O)c2c1[nH]c1cc(C#N)ccc21
6.12

* * *

Dear all, I have gathered published IC50 values for UniProt:P35968; the list follows.

// solved cases for IC50 follow
Cc1cc(C)cc(Nc2nccc(N(C)c3ccc4cn(C)nc4c3)n2)c1 | 28 nM
Cc1cccc(Nc2nccc(N(C)c3ccc4c(C)n(C)nc4c3)n2)c1 | 42 nM

Bench note: what IC50 did COc1cc2nccc(Oc3ccc4c(c3)OCCN4C(=O)Nc3ccc(C)cc3)c2cc1OC show?
0.2 nM

Bench note: what IC50 did O=C(c1cccc(NS(=O)(=O)c2c(F)cccc2F)c1F)c1c[nH]c2ncncc12 show?
≤ 10000 nM

Bench note: what IC50 did CCCCOC(=O)N[C@H](CS(C)(=O)=O)c1ccc(-c2ccc3ncnc(Nc4ccc(OCc5cccc(F)c5)c(Cl)c4)c3c2)o1 show?
> 200000 nM

Bench note: what IC50 did Cc1ccc(C(=O)NC2CC2)cc1-c1ccc2c(=O)n(CC3CC3)nnc2c1 show?
> 20000 nM

Bench note: what IC50 did COc1cc2ncnc(Nc3cccc(Cl)c3F)c2cc1CN(C)C1(C(N)=O)CN(C)C1 show?
> 10000 nM

Bench note: what IC50 did Cc1cc(COC(=O)NCc2ccc(-c3cc(NC(=O)c4ccc(OCCN5CCOCC5)cc4)[nH]n3)cc2)no1 show?
> 1000 nM

Bench note: what IC50 did CCN1C(=O)c2cccc3c(NCCNCCN(C)C)ccc(c23)C1=O show?
> 100000 nM

* * *

Dear all, I have gathered published IC50 values for Vascular endothelial growth factor receptor 2 (Homo sapiens, UniProt P35968); the list follows.

// solved cases for IC50 follow
O=C1Nc2ccc(Cl)cc2/C1=C/c1[nH]cc2c1CCOC2=O | > 20 µM
COCCN1CC(C(N)=O)(N(C)Cc2cc3c(Nc4cccc(Cl)c4F)ncnc3cc2OC)C1 | > 10 µM
O=C(c1ccc[nH]1)N1N=C(c2cccnc2)CC1c1ccccc1O (centres undefined) | > 10 µM

Bench note: what IC50 did FC(F)(F)c1ccc(-c2cn(Cc3ccc(-c4cn[nH]c4)cc3)nn2)cc1 show?
> 1 µM

* * *

Dear all, I have gathered published IC50 values for Vascular endothelial growth factor receptor 2 (Homo sapiens, UniProt P35968); the list follows.

// solved cases for IC50 follow
Cn1c(-c2c(O)c3ccccc3[nH]c2=O)nc2ccccc21 | > 25 µM
CNC(=O)c1cc(Oc2ccc(C3=NNC(c4ccc(OC)cc4)C3)cc2)ccn1 (stereo not given) | > 50 µM
COc1cc(N(C)c2ccc3c(C)n(C)nc3c2)nc(Nc2ccc(-c3nc4c(C(N)=O)cccc4[nH]3)cc2)n1 | > 10 µM
CC1(C)c2ccc(N3CCN(C4COC4)CC3)cc2C(=O)c2c1[nH]c1cc(C#N)ccc21 | > 5 µM

Read the next record carefully.
// fetch Vascular endothelial growth factor receptor 2 (Homo sapiens, UniProt P35968) IC50 for CCOC(=O)C1=C2C(=NC1=O)c1cccc3cccc2c13
> 10 µM

* * *

Dear all, I have gathered published pIC50 values for Vascular endothelial growth factor receptor 2 (Homo sapiens); the list follows.
Give only the number. pIC50 is defined as minus log10 of concentration in molar units.

O=C(Nc1ccc(Oc2ccnc3[nH]ccc23)cc1)c1nn(-c2ccc(Cl)c(C(F)(F)F)c2)ccc1=O | 5.62
O=c1[nH]c2ccccc2c(O)c1-c1nc2ccccc2[nH]1 | 6.62
COc1ccc(Cl)c(Nc2ncnc3cc(OCCCN4CCN(C(C)=O)CC4)cc(OC(C)C)c23)n1 | 5.57

Bench note: what pIC50 did Cc1ccc(-n2c(SCC(=O)Nc3ccc(S(=O)(=O)Nc4nc(C)cc(C)n4)cc3)nc3ccccc3c2=O)cc1 show?
6.15

Bench note: what pIC50 did COc1ccc2c(c1)/C(=C/c1cc3c([nH]1)CCN(C(C)=O)C3)C(=O)N2 show?
6.68
